# measuredTarget: T1, human c-Met antigen (Sino Biological) (human, UniProt P08581 25-932)
# T1 construct: Bought antigen used as the analyte in SPR; also called hepatocyte growth factor receptor; HGFR
# T1 sequence (P08581 25-932 limits assumed): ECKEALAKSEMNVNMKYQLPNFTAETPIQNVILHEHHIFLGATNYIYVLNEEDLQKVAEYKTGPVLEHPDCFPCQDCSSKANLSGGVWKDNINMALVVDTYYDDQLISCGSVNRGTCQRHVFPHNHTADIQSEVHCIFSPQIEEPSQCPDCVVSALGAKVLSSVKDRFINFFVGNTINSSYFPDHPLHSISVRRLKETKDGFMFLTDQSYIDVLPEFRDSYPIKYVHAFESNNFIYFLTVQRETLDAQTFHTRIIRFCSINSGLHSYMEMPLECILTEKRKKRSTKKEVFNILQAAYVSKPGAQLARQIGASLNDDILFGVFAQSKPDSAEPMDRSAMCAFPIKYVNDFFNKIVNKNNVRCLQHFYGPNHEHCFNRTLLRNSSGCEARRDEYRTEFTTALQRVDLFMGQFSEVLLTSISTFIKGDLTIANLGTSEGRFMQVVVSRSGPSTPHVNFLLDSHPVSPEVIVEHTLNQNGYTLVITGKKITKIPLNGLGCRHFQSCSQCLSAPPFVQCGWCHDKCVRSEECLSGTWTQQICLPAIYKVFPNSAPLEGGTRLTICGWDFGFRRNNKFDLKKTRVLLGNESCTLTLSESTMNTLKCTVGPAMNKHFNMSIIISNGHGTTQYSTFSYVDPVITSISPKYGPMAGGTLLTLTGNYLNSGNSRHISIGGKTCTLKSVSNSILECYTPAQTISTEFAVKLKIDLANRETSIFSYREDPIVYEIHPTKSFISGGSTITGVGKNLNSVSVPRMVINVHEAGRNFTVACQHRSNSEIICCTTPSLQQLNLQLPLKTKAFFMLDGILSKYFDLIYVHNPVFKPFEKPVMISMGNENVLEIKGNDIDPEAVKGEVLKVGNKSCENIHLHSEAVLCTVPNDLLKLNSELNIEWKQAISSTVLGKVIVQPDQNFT
# testSummary: derived from SPR KD; index 1 divided by the ratio of VH0/Vk0
Index 2 (affinity index normalised to VH0/Vk0) for assorted binders
Simply state the number, no unit and no words.

# binder, endpointResult
rows = [
    ("VH5/Vk0 (antibody, V domains shown, CDR-grafted variant of the IgG1-based anti-cMet antibody 1E4; also called anti-cMet candidate antibody VH5/Vk0) VH: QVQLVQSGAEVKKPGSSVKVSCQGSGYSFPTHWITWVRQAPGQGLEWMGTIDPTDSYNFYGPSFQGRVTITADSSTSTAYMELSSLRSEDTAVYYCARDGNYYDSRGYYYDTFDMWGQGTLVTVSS VL: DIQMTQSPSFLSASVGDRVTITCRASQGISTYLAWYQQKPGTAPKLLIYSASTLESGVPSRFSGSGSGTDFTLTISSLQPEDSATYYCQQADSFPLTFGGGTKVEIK", 1.48),
    ("VH0/Vk2 (antibody, V domains shown, also called anti-cMet candidate antibody VH0/Vk2) VH: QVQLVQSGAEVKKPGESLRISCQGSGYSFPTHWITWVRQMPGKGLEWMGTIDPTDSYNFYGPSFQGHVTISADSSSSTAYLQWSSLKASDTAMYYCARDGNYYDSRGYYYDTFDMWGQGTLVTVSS VL: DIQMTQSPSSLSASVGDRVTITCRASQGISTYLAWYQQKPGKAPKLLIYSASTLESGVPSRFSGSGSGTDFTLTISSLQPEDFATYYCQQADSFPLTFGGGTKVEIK", 1.02),
    ("VH5/Vk2 (antibody, V domains shown, CDR-grafted variant of the IgG1-based anti-cMet antibody 1E4; also called anti-cMet candidate antibody VH5/Vk2) VH: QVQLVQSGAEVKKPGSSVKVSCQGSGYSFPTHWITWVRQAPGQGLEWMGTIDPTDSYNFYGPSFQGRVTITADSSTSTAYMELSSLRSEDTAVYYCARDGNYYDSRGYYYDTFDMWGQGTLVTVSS VL: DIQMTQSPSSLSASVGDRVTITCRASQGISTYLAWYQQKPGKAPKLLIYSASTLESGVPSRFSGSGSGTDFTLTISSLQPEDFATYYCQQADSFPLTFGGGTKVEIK", 1.24),
    ("VH6/Vk0 (antibody, V domains shown, CDR-grafted variant of the IgG1-based anti-cMet antibody 1E4; also called anti-cMet candidate antibody VH6/Vk0) VH: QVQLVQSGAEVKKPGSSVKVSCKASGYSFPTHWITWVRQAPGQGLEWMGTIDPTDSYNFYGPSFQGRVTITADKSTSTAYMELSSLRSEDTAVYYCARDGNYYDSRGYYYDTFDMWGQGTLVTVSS VL: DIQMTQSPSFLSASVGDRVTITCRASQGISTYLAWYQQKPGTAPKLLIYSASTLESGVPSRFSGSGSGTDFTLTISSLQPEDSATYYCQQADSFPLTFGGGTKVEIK", 1.26),
]

Here is the next item to consider.
Exercise: Request the reported Index 2 (affinity index normalised to VH0/Vk0) associated with VH4/Vk0 (antibody, V domains shown, CDR-grafted variant of the IgG1-based anti-cMet antibody 1E4; also called anti-cMet candidate antibody VH4/Vk0) VH: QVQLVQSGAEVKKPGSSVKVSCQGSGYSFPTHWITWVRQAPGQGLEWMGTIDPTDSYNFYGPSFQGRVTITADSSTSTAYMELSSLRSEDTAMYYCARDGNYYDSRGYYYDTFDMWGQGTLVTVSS VL: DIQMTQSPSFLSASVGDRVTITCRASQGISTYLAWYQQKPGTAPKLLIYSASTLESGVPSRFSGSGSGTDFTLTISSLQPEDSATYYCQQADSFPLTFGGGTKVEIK
Key: 1.32
